# METHOD_DESCRIPTION: AUC (0-infinity) in Sprague-Dawley rat at 2 mg/kg,iv measured upto 24 hrs by LC-MS/MS analysis
# Format: ADME, organism-based
# Parameters: dose 2 mg/kg, time < 24 hrs, route iv
# PROTOCOL_CONDITIONS: in vivo
RECORDED_METRIC: AUC(0-inf)
# answer = value followed by unit

Item under review: COc1cc(Cc2nnc3n2N=C(c2ccc(C)cc2)CS3)cc(OC)c1OC . Reported AUC(0-inf)? 310 ng·h/mL

====

# EXPERIMENTAL_SYSTEM: Tubulin (Homo sapiens) (UniProt P68371+Q9H4B7+P0DPH7+P68366+Q13509+Q71U36+P04350+Q3ZCM7+P07437+P68363+Q9BQE3+Q6PEY2+Q13885+Q9BVA1+Q9BUF5)
# METHOD_DESCRIPTION: Inhibition of tubulin polymerization (unknown origin) at 10 uM measured for 20 mins in presence of GTP by spectrophotometry analysis relative to control
# Assay type: protein-complex assay
RECORDED_METRIC: inhibition (%)
Answers are plain numbers, in %.

Answered examples (3):
COc1cc(OCc2nnc3n2N=C(c2ccc(N(C)C)cc2)CS3)cc(OC)c1OC	12
COc1cc(OCc2nnc3n2N=C(c2ccc(C)cc2)CS3)cc(OC)c1OC	11
COc1cc(Cc2nnc3n2N=C(c2ccc(C)cc2)CS3)cc(OC)c1OC	43

Continue with the next compound.
Item under review: COc1cc(Cc2nnc3n2N=C(c2ccc(Cl)cc2)CS3)cc(OC)c1OC . Reported inhibition? 30
